Reported values of LogP for individual entries
- procedure.summary: Log P by HPLC on reversed phase, method [a], acidic range (0.1% formic acid)
- Format: physicochemical
- measurement.context: LC-UV, 0.1% formic acid in water and acetonitrile

Query: Which LogP is listed for `O=C(Nc1cnn(-c2ccc(OC(F)(F)C(F)F)cc2)c1C(F)(F)F)c1cccnc1C(F)F` ?
Reply: 3.19^[a]

Query: Which LogP is listed for `O=C(Nc1cnn(-c2ccccc2F)c1C(F)(F)F)c1cccnc1C(F)F` ?
Reply: 2.55^[a]

Query: Which LogP is listed for `O=C(Nc1cnn(-c2c(F)cccc2F)c1C(F)(F)F)c1cccnc1C(F)F` ?
Reply: 2.50^[a];

Query: Which LogP is listed for `O=C(Nc1cnn(Cc2ccccc2)c1C(F)(F)F)c1ccc(Cl)nc1C(F)F` ?
Reply: 3.33^[a]

Query: Which LogP is listed for `O=C(Nc1cnn(-c2ccccc2F)c1C(F)(F)F)c1ccc(Cl)nc1C(F)F` ?
Reply: 3.15^[a]

----------
Reported values of LogP for individual entries
- procedure.summary: Log P by HPLC on reversed phase, method [a], acidic range (0.1% formic acid)
- Type: physicochemical
- measurement.context: LC-UV, 0.1% formic acid in water and acetonitrile

>  <molecule>
O=C(Nc1cnn(-c2ccc(I)cc2)c1C(F)(F)F)c1cccnc1C(F)F [Example 234]

>  <LogP>
3.25^[a]

$$$$

Query: Which LogP is listed for Cc1cnc(C(F)F)c(C(=O)Nc2cnn(-c3cccc(Cl)c3Cl)c2C(F)(F)F)c1 [Example 167] ?
Reply: 3.35^[a]

Query: Which LogP is listed for Cc1c(NC(=O)c2ccc(Cl)nc2C(F)F)cnn1-c1ccc(Cl)cc1 [Example 72] ?
Reply: 2.86^[a]

Query: Which LogP is listed for O=C(Nc1cnn(-c2cc(Cl)ccc2Cl)c1C(F)(F)F)c1cccnc1C(F)F [Example 95] ?
Reply: 3.15^[a]

Query: Which LogP is listed for O=C(Nc1cnn(-c2ccc(SC(F)(F)F)cc2)c1C(F)(F)F)c1cccnc1C(F)F [Example 243] ?
Reply: 3.68^[a]

Query: Which LogP is listed for CCc1c(NC(=O)c2cc(C)cnc2C(F)F)cnn1-c1ccccc1Cl [Example 212] ?
Reply: 2.41^[a]

Query: Which LogP is listed for O=C(Nc1cnn(-c2ccccc2C(F)(F)F)c1-c1ccc(Cl)cc1)c1cccnc1C(F)F [Example 132] ?
Reply: 3.04^[a]

----------
Reported values of LogP for individual entries
- procedure.summary: Log P by HPLC on reversed phase, method [a], acidic range (0.1% formic acid)
- Assay type: physicochemical
- measurement.context: LC-UV, 0.1% formic acid in water and acetonitrile

>  <molecule>
COc1ccc(-n2ncc(NC(=O)c3cccnc3C(F)F)c2Br)cc1 [Example 193]

>  <assay.endpoint>
LogP

>  <result>
2.09^[a]

$$$$

Query: Which LogP is listed for O=C(Nc1cnn(-c2ccccc2Cl)c1C(F)(F)F)c1cccnc1C(F)F [Example 77] ?
Reply: 2.58^[a];

Query: Which LogP is listed for Cc1ccc(-n2ncc(NC(=O)c3cccnc3C(F)F)c2C(C)C)cc1 [Example 108] ?
Reply: 2.48^[a]

Query: Which LogP is listed for O=C(Nc1cnn(-c2ccccc2Cl)c1-c1ccccc1)c1cccnc1C(F)F [Example 79] ?
Reply: 2.53^[a]

Query: Which LogP is listed for O=C(Nc1cnn(-c2ccccc2Br)c1C(F)(F)F)c1cccnc1C(F)F [Example 74] ?
Reply: 2.71^[a]

Query: Which LogP is listed for CCC(C)n1ncc(NC(=O)c2cccnc2C(F)F)c1C (centres unmarked) [Example 126] ?
Reply: 1.63^[a]

Query: Which LogP is listed for Cc1cnc(C(F)F)c(C(=O)Nc2cnn(-c3ccc(Br)cc3)c2C)c1 [Example 133] ?
Reply: 2.59^[a]

Query: Which LogP is listed for O=C(Nc1cnn(-c2ccc(C(F)(F)F)cc2)c1-c1ccc(Cl)cc1)c1cccnc1C(F)F [Example 182] ?
Reply: 3.55^[a]

Query: Which LogP is listed for Cc1ccccc1-n1ncc(NC(=O)c2cccnc2C(F)F)c1C [Example 115] ?
Reply: 1.93^[a]

Query: Which LogP is listed for O=C(Nc1cnn(-c2cc(F)c(F)c(F)c2)c1Cl)c1cccnc1C(F)F [Example 253] ?
Reply: 2.66^[a]

----------
- procedure.summary: Log P by HPLC on reversed phase, method [b], neutral range (0.001 molar ammonium acetate)
- Assay type: physicochemical
- Experimental: Measurement of Log P values was performed according to EEC directive 79/831 Annex V.A8 by HPLC (High Performance Liquid Chromatography) on reversed phase columns with the following methods: [b] […] Lambda-max-values were determined using UV-spectra from 200 nm to 400 nm and the peak values of the chromatographic signals.
Reported values of LogP for individual entries

Please review the following examples before continuing.
>  <chem.smiles>
Cc1c(NC(=O)c2cccnc2C(F)F)cnn1-c1ccccc1F

>  <LogP>
1.68^[b]

$$$$
>  <chem.smiles>
O=C(Nc1cnn(-c2ccccc2Cl)c1C(F)(F)F)c1cccnc1C(F)F

>  <LogP>
2.53^[b]

$$$$
>  <chem.smiles>
O=C(Nc1cnn(-c2c(F)cccc2F)c1C(F)(F)F)c1cccnc1C(F)F

>  <LogP>
2.43^[b]

$$$$
>  <chem.smiles>
O=C(Nc1cnn(-c2c(F)cccc2F)c1C(F)(F)F)c1cccnc1C(F)(F)F

>  <LogP>
2.72^[b]

$$$$

Query: Which LogP is listed for `O=C(Nc1cnn(-c2ccccc2Cl)c1C(F)(F)F)c1cccnc1C(F)(F)F` ?
Reply: 2.80^[b]

----------
Reported values of LogP for individual entries
- procedure.summary: Log P by HPLC on reversed phase, method [a], acidic range (0.1% formic acid)
- Type: physicochemical
- measurement.context: LC-UV, 0.1% formic acid in water and acetonitrile

Please review the following examples before continuing.
>  <chem.smiles>
CC(C)c1ccc(-n2ncc(NC(=O)c3cccnc3C(F)F)c2C(F)(F)F)cc1

>  <LogP>
3.55^[a]

$$$$
>  <chem.smiles>
O=C(Nc1cnn(-c2ccc(Oc3ccccc3)cc2)c1C(F)(F)F)c1cccnc1C(F)F

>  <LogP>
3.59^[a]

$$$$
>  <chem.smiles>
COc1c(NC(=O)c2cccnc2C(F)F)cnn1-c1ccc(C(F)(F)F)cc1

>  <LogP>
2.63^[a]

$$$$
>  <chem.smiles>
O=C(Nc1cnn(-c2ccc(Cl)cc2)c1-c1ccc(Cl)cc1)c1cccnc1C(F)F

>  <LogP>
3.35^[a]

$$$$
>  <chem.smiles>
Cc1cccc(-n2ncc(NC(=O)c3ccc(Cl)nc3C(F)F)c2C(F)(F)F)c1

>  <LogP>
3.33^[a]

$$$$

Query: Which LogP is listed for `O=C(Nc1cnn(-c2ccccc2)c1Cl)c1cccnc1C(F)F` ?
Reply: 2.07^[a]

Query: Which LogP is listed for `O=C(Nc1cnn(-c2ccc(Br)cc2)c1C(F)(F)F)c1cccnc1CF` ?
Reply: 2.80^[a]

Query: Which LogP is listed for `COc1c(NC(=O)c2cccnc2C(F)F)c(C)nn1-c1ccccc1` ?
Reply: 1.88^[a]

----------
- procedure.summary: Log P by HPLC on reversed phase, method [a], acidic range (0.1% formic acid)
- Type: physicochemical
- measurement.context: LC-UV, 0.1% formic acid in water and acetonitrile
assay.endpoint: LogP

Please review the following examples before continuing.
>  <compound>
N#Cc1c(NC(=O)c2cccnc2C(F)F)cnn1-c1ccc(Cl)cc1 [Example 223]

>  <LogP>
2.64^[a]

$$$$
>  <compound>
O=C(Nc1cnn(Cc2ccccc2)c1C(F)(F)F)c1cccnc1C(F)F [Example 97]

>  <LogP>
2.71^[a]

$$$$
>  <compound>
Cc1cnc(C(F)F)c(C(=O)Nc2cnn(-c3ccc(F)cc3)c2C(F)(F)F)c1 [Example 141]

>  <LogP>
2.86^[a]

$$$$

Query: Which LogP is listed for Cc1c(NC(=O)c2cccnc2C(F)F)cnn1C(C)(C)C [Example 6] ?
Reply: 1.63^[a]

Query: Which LogP is listed for CC(C)Oc1c(NC(=O)c2cccnc2C(F)F)cnn1-c1ccc(Cl)cc1 [Example 226] ?
Reply: 2.86^[a]

----------
- procedure.summary: Log P by HPLC on reversed phase, method [a], acidic range (0.1% formic acid)
- Format: physicochemical
- measurement.context: LC-UV, 0.1% formic acid in water and acetonitrile
Reported values of LogP for individual entries

>  <molecule>
O=C(Nc1cnn(-c2cccc(C(F)F)c2)c1C(F)F)c1cccnc1C(F)F [Example 26]

>  <LogP>
2.48^[a]

$$$$
>  <molecule>
O=C(Nc1cnn(-c2ccccc2F)c1-c1ccccc1)c1cccnc1C(F)F [Example 148]

>  <LogP>
2.39^[a]

$$$$
>  <molecule>
O=C(Nc1cnn(-c2ccc(Cl)cc2)c1C(F)(F)F)c1cccnc1CF [Example 236]

>  <LogP>
2.67^[a]

$$$$

Query: Which LogP is listed for COc1cnc(C(F)F)c(C(=O)Nc2cnn(-c3ccc(Cl)cc3)c2C(F)(F)F)c1 [Example 169] ?
Reply: 3.29^[a]

Query: Which LogP is listed for CCc1c(NC(=O)c2cc(C)cnc2C(F)F)cnn1-c1ccccc1C [Example 204] ?
Reply: 2.44^[a]
